# STUDY SYSTEM: human Fpn-GFP fusion (Homo sapiens, UniProt Q9NP59)
# Construct: expressed in transfected cells; host or cells: HEK-293 cell line #354 (derivative of HEK-293 Tet-ON Advanced, Clontech)
# Sequence (Q9NP59 whole entry, the tested form may be a part): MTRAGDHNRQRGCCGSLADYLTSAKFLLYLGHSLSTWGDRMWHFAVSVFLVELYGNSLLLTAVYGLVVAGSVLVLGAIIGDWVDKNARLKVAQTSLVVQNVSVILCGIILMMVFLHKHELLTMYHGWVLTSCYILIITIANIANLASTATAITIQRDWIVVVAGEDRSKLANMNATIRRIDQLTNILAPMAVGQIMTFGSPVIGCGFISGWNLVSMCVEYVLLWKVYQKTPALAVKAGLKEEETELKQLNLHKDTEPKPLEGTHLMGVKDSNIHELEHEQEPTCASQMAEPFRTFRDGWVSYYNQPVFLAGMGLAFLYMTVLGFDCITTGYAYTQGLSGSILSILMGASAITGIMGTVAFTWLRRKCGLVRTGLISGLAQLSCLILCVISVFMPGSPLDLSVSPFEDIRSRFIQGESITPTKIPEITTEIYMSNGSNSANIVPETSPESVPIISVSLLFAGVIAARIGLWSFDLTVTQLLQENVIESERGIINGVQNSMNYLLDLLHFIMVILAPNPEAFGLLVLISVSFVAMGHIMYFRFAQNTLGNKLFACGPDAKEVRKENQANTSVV
# PROTOCOL TEXT: Inhibition of ferroportin mediated iron export activity in an iron response assay (BLAzer)
# Type: cell-based
# COND: average of multiple measurements; HEK-293 cell line #354; read-out: BLAzer EC50
VALUE TYPE: pEC50
Recall that pEC50 is obtained by taking minus log10 of the concentration measured in molar.

O=C(NCc1ncccc1F)c1csc(CCNCCc2nc3cc(F)ccc3[nH]2)n1 [Example 120] = 5.80
O=C(c1csc(CCNCc2nc3ccccc3[nH]2)n1)N1CCc2ncccc2C1 [Example 107] = 4.68
O=C(NCc1ncccc1F)c1coc(CCNCc2nc3ccccc3[nH]2)n1 [Example 126] = 5.90
O=C(NC1CCCc2cccnc21)c1csc(CCNCc2nc3ccccc3[nH]2)n1 (stereo not drawn) [Example 38] = 5.53
Cc1oc(CCNCCc2nc3ccccc3[nH]2)nc1C(=O)NCc1ncccc1F [Example 230] = 5.20

Now consider the entry below.
Asked: Give reported pEC50 value for O=C(NCc1ncc(F)cc1F)c1csc(CCNCc2nc3ccccc3[nH]2)n1 [Example 108]
Given back: 5.39

###

Reported log10 of EC50 values follow for various molecules
# STUDY SYSTEM: human Fpn-GFP fusion (Homo sapiens, UniProt Q9NP59)
# Construct: expressed in transfected cells; host or cells: HEK-293 cell line #354 (derivative of HEK-293 Tet-ON Advanced, Clontech)
# PROTOCOL TEXT: Inhibition of ferroportin mediated iron export activity in an iron response assay (BLAzer)
# Format: cell-based
# COND: average of multiple measurements; HEK-293 cell line #354; read-out: BLAzer EC50
Give log10 of EC50, with EC50 taken in µM.

COc1cccnc1CNC(=O)c1csc(CCNCc2nc3ccccc3[nH]2)n1 [Example 59] = 0.14
O=C(NCc1ncccc1F)c1ncn(CCNCc2nc3ccccc3[nH]2)n1 [Example 169] = 0.92
O=C(NCc1ncccc1F)c1csc(CCNCC(F)(F)c2nc3ccccc3[nH]2)n1 [Example 196] = 1.10
Cc1c(CNC(=O)c2csc(CCNCc3nc4ccccc4[nH]3)n2)cnn1C [Example 100] = 0.82
O=C(NC1CCc2cccnc21)c1csc(CCNCc2nc3ccccc3[nH]2)n1 (centres unmarked) [Example 39] = 0.46
O=C(NCc1ccccc1)c1cccc(CCNCc2nc3ccccc3[nH]2)c1 [Example 67] = 1.53
O=C(NCc1ncccc1F)c1nc(CCNCCc2nc3ccccc3[nH]2)sc1Cl [Example 154] = -0.13
O=C(NCc1cccnn1)c1csc(CCNCc2nc3ccccc3[nH]2)n1 [Example 87] = 1.22

Asked: Give reported log10 of EC50 value for O=C(NCc1ncccc1F)c1coc(CCNCCc2nc3ccccc3[nH]2)n1 [Example 127]
Given back: -0.38

Asked: Give reported log10 of EC50 value for O=C(NCc1ncccc1F)c1cnn(CCNCCc2nc3ccccc3[nH]2)c1 [Example 111]
Given back: -0.21

Asked: Give reported log10 of EC50 value for O=C(NCc1ccncc1F)c1csc(CCNCc2nc3ccccc3[nH]2)n1 [Example 89]
Given back: 0.70

Asked: Give reported log10 of EC50 value for O=C(NCc1ncco1)c1csc(CCNCc2nc3ccccc3[nH]2)n1 [Example 85]
Given back: 1.27

Asked: Give reported log10 of EC50 value for O=C(NCc1ccccn1)c1coc(CCNCc2nc3ccccc3[nH]2)n1 [Example 137]
Given back: 0.76

Asked: Give reported log10 of EC50 value for O=C(NCc1ncccc1F)c1csc(CCCNCc2nc3ccccc3[nH]2)n1 [Example 134]
Given back: 0.61

###

# STUDY SYSTEM: ferroportin (Fpn) (Mus musculus)
# Construct: host or cells: J774 mouse macrophage cell line, Fe(III)-NTA induced
# Sequence (Q9JHI9 whole entry): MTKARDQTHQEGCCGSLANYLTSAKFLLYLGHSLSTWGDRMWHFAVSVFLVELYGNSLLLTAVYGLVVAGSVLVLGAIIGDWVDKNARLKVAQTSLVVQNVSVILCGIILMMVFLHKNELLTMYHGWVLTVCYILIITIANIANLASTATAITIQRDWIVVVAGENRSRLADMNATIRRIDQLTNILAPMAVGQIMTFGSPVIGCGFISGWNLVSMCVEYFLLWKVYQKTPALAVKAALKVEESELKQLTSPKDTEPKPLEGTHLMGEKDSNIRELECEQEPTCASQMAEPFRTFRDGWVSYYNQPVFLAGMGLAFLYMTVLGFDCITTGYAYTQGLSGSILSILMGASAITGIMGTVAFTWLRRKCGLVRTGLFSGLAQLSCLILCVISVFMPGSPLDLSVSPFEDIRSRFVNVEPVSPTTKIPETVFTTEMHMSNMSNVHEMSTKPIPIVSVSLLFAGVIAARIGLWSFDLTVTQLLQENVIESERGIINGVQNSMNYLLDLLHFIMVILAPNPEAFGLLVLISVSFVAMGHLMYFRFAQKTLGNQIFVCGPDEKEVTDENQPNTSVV
# PROTOCOL TEXT: Hepcidin Internalization Assay (J774)
# Assay type: cell-based
# COND: average of multiple measurements; inhibition of TMR-hepcidin (25 nM) internalization into J774 cells; read-out: J774 IC50
VALUE TYPE: IC50 (nM)
Provide only the numeric value, understood in nM.

O=C(c1csc(CCNCc2nc3ccccc3[nH]2)n1)N1CCc2ccccc2C1 [Example 15] = 1600
O=C(NCc1ncccc1F)c1csc(CCNCCc2nc3c(F)cccc3[nH]2)n1 [Example 243] = 32
O=C(NCCc1ccccc1)c1csc(CCNCc2nc3ccccc3[nH]2)n1 [Example 78] = 410

Asked: Give reported IC50 value for O=C(CNC(=O)C1CN(CCc2nc3ccccc3[nH]2)C1)NCc1ncccc1F [compound 201]
Given back: 1930

Asked: Give reported IC50 value for O=C(NCc1ncccc1Cl)c1ncn(CCNCc2nc3ccccc3[nH]2)n1 [Example 170]
Given back: 482

Asked: Give reported IC50 value for O=C(NCc1ncccc1F)c1coc(CCNCCc2nc3c(Cl)cccc3[nH]2)n1 [Example 226]
Given back: 49

Asked: Give reported IC50 value for O=C(NCc1ncccc1CO)c1csc(CCNCc2nc3ccccc3[nH]2)n1 [Example 110]
Given back: 1700

Asked: Give reported IC50 value for Cc1cnccc1CNC(=O)c1csc(CCNCc2nc3ccccc3[nH]2)n1 [Example 90]
Given back: 25

Asked: Give reported IC50 value for O=C(NCc1ncccc1F)N1CCCC(CCNCCc2nc3ccccc3[nH]2)C1 (stereo not drawn) [compound 200]
Given back: 3140

Asked: Give reported IC50 value for O=C(NCc1ncccc1F)c1cnn(CC2CN(Cc3nc4ccccc4[nH]3)C2)c1 [Example 187]
Given back: 87000

###

# STUDY SYSTEM: human Fpn (Homo sapiens)
# Construct: FLAG (C); made in house; host or cells: Pichia pastoris
# PROTOCOL TEXT: Biophysical Ferroportin-Hepcidin Binding Assay (fluorescence polarization)
# COND: average of multiple measurements; 1 μM human Fpn, 20 nM TMR-hepcidin; read-out: FP IC50
VALUE TYPE: IC50 (µM)
Provide only the numeric value, understood in µM.

Guide cases for IC50, answers given:
O=C(NCc1ccccc1)c1csc(CCNCc2nc3cc(Cl)ccc3[nH]2)n1 = 1.36
Cn1ccc(CNC(=O)c2csc(CCNCc3nc4ccccc4[nH]3)n2)n1 = 4.96

Asked: Give reported IC50 value for O=C(NCc1ccccc1)c1csc(CCNCc2nc3ccccc3[nH]2)n1
Given back: 0.49

Asked: Give reported IC50 value for O=C(NCc1ccc[nH]c1=O)c1csc(CCNCc2nc3ccccc3[nH]2)n1
Given back: 1.05

Asked: Give reported IC50 value for Cc1ccc2[nH]c(CNCCc3nc(C(=O)NCc4ccccc4)cs3)nc2c1
Given back: 1.21

Asked: Give reported IC50 value for O=C(NCc1ncccc1F)c1cnn(C2CCN(Cc3nc4ccccc4[nH]3)CC2)c1
Given back: 73

Asked: Give reported IC50 value for O=C(NCc1ncccc1F)c1coc(C2CN(CCc3nc4c(F)cccc4[nH]3)C2)n1
Given back: 0.038

Asked: Give reported IC50 value for O=C(NCc1ncccc1F)c1cncc(CCNCc2nc3ccccc3[nH]2)c1
Given back: 0.147

###

# STUDY SYSTEM: human Fpn-GFP fusion (Homo sapiens, UniProt Q9NP59)
# Construct: expressed in transfected cells; host or cells: HEK-293 cell line #354 (derivative of HEK-293 Tet-ON Advanced, Clontech)
# PROTOCOL TEXT: Ferroportin Internalization and Degradation Assay (FACS)
# Format: cell-based
# COND: average of multiple measurements; Fpn-GFP MFI, HEK-293 cell line #354, FACS
Reported pEC50 values follow for various compounds
Recall that pEC50 is obtained by taking minus log10 of the concentration measured in molar.

O=C(NCc1ncccc1F)c1csc(CCN(CCc2nc3ccccc3[nH]2)CCc2nc3ccccc3[nH]2)n1 = 7.15
O=C(NCc1ncccc1F)c1coc(CCNCCc2nc3c(F)cc(F)cc3[nH]2)n1 = 6.02
O=C(NCc1ncccc1F)c1csc(CCNCCc2nc3cc(F)ccc3[nH]2)n1 = 6.28

Now consider the entry below.
Asked: Give reported pEC50 value for O=C(NCc1cccnn1)c1csc(CCNCCc2nc3ccccc3[nH]2)n1
Given back: 5.52

###

# STUDY SYSTEM: ferroportin (Fpn) (Mus musculus)
# Construct: host or cells: J774 mouse macrophage cell line, Fe(III)-NTA induced
# PROTOCOL TEXT: Hepcidin Internalization Assay (J774)
# Type: cell-based
# COND: average of multiple measurements; inhibition of TMR-hepcidin (25 nM) internalization into J774 cells; read-out: J774 IC50
VALUE TYPE: pIC50
Recall that pIC50 is obtained by taking minus log10 of the concentration measured in molar.

Asked: Give reported pIC50 value for CN(C)c1ccc(CNC(=O)c2csc(CCNCc3nc4ccccc4[nH]3)n2)cn1
Given back: 5.73

Asked: Give reported pIC50 value for O=C(NCc1ncccc1Cl)c1csc(CCNCc2nc3ccccc3[nH]2)n1
Given back: 8.22

Asked: Give reported pIC50 value for O=C(NC1CCc2cccnc21)c1csc(CCNCCc2nc3ccccc3[nH]2)n1 (stereo not drawn)
Given back: 7.33

Asked: Give reported pIC50 value for O=C(NCc1ncccc1F)c1csc(C2CCN(CCc3nc4ccccc4[nH]3)C2)n1 (stereo not drawn)
Given back: 4.85

Asked: Give reported pIC50 value for O=C(NCc1ccccc1)c1csc(CCNCc2nc3cc(F)ccc3[nH]2)n1
Given back: 5.96

Asked: Give reported pIC50 value for O=C(NCc1ccccc1OC(F)(F)F)c1csc(CCNCc2nc3ccccc3[nH]2)n1
Given back: 5.87

Asked: Give reported pIC50 value for N#Cc1ccc2[nH]c(CCNCCc3nc(C(=O)NCc4ncccc4F)co3)nc2c1
Given back: 7.15

Asked: Give reported pIC50 value for O=C(CC(=O)NCc1ncccc1F)NCCNCCc1nc2ccccc2[nH]1
Given back: 6.05

Asked: Give reported pIC50 value for O=C(NCc1cnccn1)c1csc(CCNCc2nc3ccccc3[nH]2)n1
Given back: 6.23
